Heads up, these compounds all have IC50 values measured for PI3Kalpha (Homo sapiens (Human), UniProt P42336).
Hey, just the number and the unit after it is fine.

State the measured IC50 (PI3Kalpha (Homo sapiens (Human), UniProt P42336)) of CCc1ncnc(-c2cccc(C(=O)NC)c2)c1C#Cc1ccc(N)nc1
0.072 µM

State the measured IC50 (PI3Kalpha (Homo sapiens (Human), UniProt P42336)) of CCc1ncnc(-c2cc(F)c(C(=O)N3CCN(C(C)CO)CC3)c(Cl)c2)c1C#Cc1ccc(N)nc1 (stereo not drawn)
0.108 µM

State the measured IC50 (PI3Kalpha (Homo sapiens (Human), UniProt P42336)) of CCc1ncnc(-c2ccc(C(=O)N3CCN(C4COC4)CC3)c(F)c2)c1C#Cc1ccc(N)nc1C
0.153 µM

State the measured IC50 (PI3Kalpha (Homo sapiens (Human), UniProt P42336)) of CCc1ncnc(-c2ccc(C(=O)N3CCN(C4COC4)CC3)c(F)c2)c1C#Cc1ccc(N)nc1
0.113 µM

State the measured IC50 (PI3Kalpha (Homo sapiens (Human), UniProt P42336)) of Cc1ncnc(-c2ccc(C(=O)N3CCN(c4ccccc4)CC3)cc2)c1C#Cc1ccc(N)nc1
0.067 µM

State the measured IC50 (PI3Kalpha (Homo sapiens (Human), UniProt P42336)) of CCc1ncnc(-c2ccc(C(=O)N3CCC4(CN(C(=O)OC(C)(C)C)C4)C3)c(F)c2)c1C#Cc1ccc(N)nc1
0.842 µM

* * *

Heads up, these compounds all have IC50 values measured for PI3Kalpha (Homo sapiens (Human), UniProt P42336).
Report the figure in nM without appending any unit label.

[[record]]
compound = "CCc1ncnc(-c2ccc(C(=O)N3CCCOCC3)c(C)c2)c1C#Cc1ccc(N)nc1"
measurement_label = "IC50"
number = 77.8

[[record]]
compound = "CCc1ncnc(-c2ccc(C(=O)N3CCNCC3)c(Cl)c2)c1C#Cc1ccc(N)nc1 [Example E-34]"
measurement_label = "IC50"
number = 164

[[record]]
compound = "CCCCN1CCN(C(=O)c2ccc(-c3ncnc(CC)c3C#Cc3ccc(N)nc3)cc2Cl)CC1"
measurement_label = "IC50"
number = 162

[[record]]
compound = "CCc1ncnc(-c2ccc(C(=O)NCC3(C)COC3)c(F)c2)c1C#Cc1ccc(N)nc1"
measurement_label = "IC50"
number = 72

[[record]]
compound = "CCc1ncnc(-c2cc(F)c(C(=O)N3CCn4cnnc4C3)c(F)c2)c1C#Cc1ccc(N)nc1"
measurement_label = "IC50"
number = 70.6


State the measured IC50 (PI3Kalpha (Homo sapiens (Human), UniProt P42336)) of CCc1ncnc(-c2ccc(S(C)(=O)=O)cc2)c1C#Cc1ccc(C)nc1
99

State the measured IC50 (PI3Kalpha (Homo sapiens (Human), UniProt P42336)) of CCc1ncnc(-c2ccc(C(=O)N3CCN(C4COC4)CC3)c(Cl)c2)c1C#Cc1ccc(N)nc1
119

Values were extracted from patent US8633183B2.
